Cited source for all entries: ChEMBL document CHEMBL5528027

# System: Klebsiella pneumoniae
# Measurement description: Antibacterial activity against Klebsiella pneumoniae assessed as reduction in bacterial growth measured after 24 hrs by two-fold serial dilution method
# Format: functional
Assay readout: MIC (µg/mL)
Report as a plain number; the unit µg/mL is understood.

# MIC (molecule: O=C(Nc1ccnc2ccccc12)c1ccc2c(c1)OCCCO2 ) is 50

Lookup result for CN1CCN(C(=O)c2ccc3c(c2)OCCCO3)CC1 ; measured MIC: 6.25

In plain terms, O=C(Nc1cccnc1)c1ccc2c(c1)OCCCO2 has a documented MIC of 25

Quick note, MIC for O=C(Nc1cccc2cccnc12)c1ccc2c(c1)OCCCO2 landed at 50

Record COc1ccc2[nH]cc(CNC(=O)c3ccc4c(c3)OCCCO4)c2c1 , field MIC: 50
